Here, each record is paired with measured pIC50 data.
# STUDY_TARGET: PI3-kinase p110-delta/p85-alpha (Homo sapiens)
# TEST_SUMMARY: Inhibition of recombinant human full length N-terminal GST-tagged PI3Kdelta (1 to 1044 residues)/PIK3R1 (1 to 724 residues) expressed in baculovirus expression system using PIP2 as substrate incubated for 2 hrs by ADP-Glo assay
pIC50: −log10 of the molar value.

Below are worked cases with known answers.
[[record]]
smiles_text = "O=C1COc2ccc(-c3cnc4ccccc4c3)cc2N1c1ccccc1"
assay_metric = "pIC50"
result = "< 6.00"

[[record]]
smiles_text = "COc1ncc(-c2ccc3c(c2)N(C2CC2)C(=O)CO3)cc1NS(=O)(=O)c1ccc(F)cc1"
assay_metric = "pIC50"
result = 6.79


stdin: pIC50 lookup needed for COc1ncc(-c2ccc3c(c2)N(C(C)C)C(=O)CO3)cc1NS(=O)(=O)c1ccc(F)cc1 , thanks.
stdout: 7.74

stdin: Which measured pIC50 value corresponds to O=C1COc2ccc(-c3cccc(NS(=O)(=O)c4ccc(F)cc4)c3)cc2N1c1ccc(F)cc1 ?
stdout: < 5.00

stdin: Which value of pIC50 has been reported for COc1ccc(N2C(=O)COc3ccc(-c4ccc(O)cc4)cc32)cc1 in the records?
stdout: < 6.00

stdin: Consider the compound shown here: Cc1ccc(N2C(=O)COc3ccc(-c4ccc(O)cc4)cc32)cc1 What is its recorded pIC50?
stdout: < 6.00

stdin: Name the recorded pIC50 for O=C1COc2ccc(-c3ccc(O)cc3)cc2N1c1ccc(F)cc1 .
stdout: < 6.00

stdin: What measured pIC50 goes with COc1cccc(N2C(=O)COc3ccc(-c4cnc(Cl)c(NS(=O)(=O)c5ccc(F)cc5)c4)cc32)c1 ?
stdout: < 6.00

stdin: Returns the measured pIC50 for the input compound. Input: O=C1COc2ccc(-c3cnc(Cl)c(NS(=O)(=O)c4ccc(F)cc4)c3)cc2N1
stdout: 7.04

stdin: I am curious: what pIC50 value has been reported for COc1cccc(N2C(=O)COc3ccc(-c4ccc(O)cc4)cc32)c1 ?
stdout: < 6.00

stdin: Name the recorded pIC50 for O=C1COc2ccc(-c3ccc(O)cc3)cc2N1 .
stdout: < 6.00

stdin: Report pIC50 for O=C1COc2ccc(-c3cccc(NS(=O)(=O)c4ccc(F)cc4)c3)cc2N1 please.
stdout: < 6.00

stdin: Form field: reported pIC50 of COc1ccc(N2C(=O)COc3ccc(-c4cnc(OC)c(NS(=O)(=O)c5ccc(F)cc5)c4)cc32)cc1
stdout: 8.04

stdin: For the compound shown here, COc1cccc(N2C(=O)COc3ccc(-c4cccc(NS(=O)(=O)c5ccc(F)cc5)c4)cc32)c1 , give the reported pIC50.
stdout: < 6.00

----------
# TEST_SUMMARY: Half life in Sprague-Dawley rat at 10 mg/kg, po measured upto 24 hrs by LC-MS/MS analysis
# Assay type: ADME, organism-based
# ASSAY_SETUP: in vivo
ASSAY_METRIC: half-life (min)
Numbers only here, please. The scale is min.

stdin: Return reported half-life; argument: COc1ccc(N2C(=O)COc3ccc(-c4cnc(OC)c(NS(=O)(=O)c5ccc(F)cc5)c4)cc32)cc1
stdout: 107

----------
Reported IC50 is given for each of the following molecules.
# System: HCT-116
# TEST_SUMMARY: Antiproliferative activity against human HCT116 cells assessed as reduction in cell viability incubated for 72 hrs by MTT assay
# Assay type: functional, cell-based
# ASSAY_SETUP: HCT-116, 72 h
Just the number in µM, nothing appended.

[[record]]
smiles_text = "CC(C)N1C(=O)COc2ccc(-c3cccc(NS(=O)(=O)c4ccc(F)cc4)c3)cc21"
numeric_readout = 22.6


Attention now shifts to the item below.
stdin: For O=C1COc2ccc(-c3cnc(Cl)c(NS(=O)(=O)c4ccc(F)cc4)c3)cc2N1c1ccc(Cl)cc1 , what is its reported IC50?
stdout: 27.9

----------
# TEST_SUMMARY: AUC (0 to infinity) in Sprague-Dawley rat at 10 mg/kg, po measured upto 24 hrs by LC-MS/MS analysis
# Type: ADME, organism-based
# Design: dose 10 mg/kg, time infinity, route oral
# ASSAY_SETUP: in vivo
ASSAY_METRIC: AUC(0-inf) (ng·h/mL)
Respond numerically; units are ng·h/mL and should not be typed.

stdin: Look up AUC(0-inf): COc1ccc(N2C(=O)COc3ccc(-c4cnc(OC)c(NS(=O)(=O)c5ccc(F)cc5)c4)cc32)cc1
stdout: 4750

----------
# STUDY_TARGET: Phosphatidylinositol 4,5-bisphosphate 3-kinase catalytic subunit alpha isoform (Homo sapiens)
# Sequence (P42336 whole entry, looked up, the tested form may be a part, canonical isoform): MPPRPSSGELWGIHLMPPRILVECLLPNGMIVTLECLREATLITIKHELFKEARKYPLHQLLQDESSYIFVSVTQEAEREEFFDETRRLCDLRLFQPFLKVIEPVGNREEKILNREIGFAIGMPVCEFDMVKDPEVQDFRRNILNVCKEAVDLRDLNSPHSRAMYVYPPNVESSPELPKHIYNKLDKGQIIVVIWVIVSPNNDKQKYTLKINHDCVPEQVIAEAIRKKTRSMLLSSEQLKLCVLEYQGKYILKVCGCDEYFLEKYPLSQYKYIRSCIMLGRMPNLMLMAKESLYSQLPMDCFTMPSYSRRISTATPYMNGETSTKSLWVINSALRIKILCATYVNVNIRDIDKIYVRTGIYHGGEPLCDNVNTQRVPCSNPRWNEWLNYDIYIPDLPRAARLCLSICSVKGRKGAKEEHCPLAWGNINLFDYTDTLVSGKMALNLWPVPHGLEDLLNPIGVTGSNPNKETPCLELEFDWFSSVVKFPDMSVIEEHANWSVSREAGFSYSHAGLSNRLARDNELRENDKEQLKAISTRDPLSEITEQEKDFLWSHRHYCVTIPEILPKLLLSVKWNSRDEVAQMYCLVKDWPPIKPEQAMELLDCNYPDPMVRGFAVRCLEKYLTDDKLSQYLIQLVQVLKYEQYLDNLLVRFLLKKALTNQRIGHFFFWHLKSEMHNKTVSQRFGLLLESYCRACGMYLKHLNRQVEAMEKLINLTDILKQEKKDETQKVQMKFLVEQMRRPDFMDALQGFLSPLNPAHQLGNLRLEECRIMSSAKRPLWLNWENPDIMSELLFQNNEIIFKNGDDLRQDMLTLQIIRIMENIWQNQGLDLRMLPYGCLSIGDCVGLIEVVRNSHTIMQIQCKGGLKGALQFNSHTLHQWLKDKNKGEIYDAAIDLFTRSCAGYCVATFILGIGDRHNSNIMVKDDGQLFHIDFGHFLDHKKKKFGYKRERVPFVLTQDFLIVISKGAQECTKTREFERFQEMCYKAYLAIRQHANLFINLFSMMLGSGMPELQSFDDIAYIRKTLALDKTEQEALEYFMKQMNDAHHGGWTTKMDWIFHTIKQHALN
# TEST_SUMMARY: Inhibition of recombinant human full length N-terminal GST-tagged PI3Kalpha (1 to 1068 residues)/PIK3R1 (1 to 724 residues) expressed in baculovirus expression system using PIP2 as substrate incubated for 1 hr by ADP-Glo assay
ASSAY_METRIC: IC50 (µM)
Entry rule: numbers only, all in µM.

[[record]]
smiles_text = "COc1ncc(-c2ccc3c(c2)N(c2ccc(C)cc2)C(=O)CO3)cc1NS(=O)(=O)c1ccc(F)cc1"
unit_symbol = "µM"
numeric_readout = 0.012


Then this molecule:
stdin: Name the reported IC50 value associated with the molecule COc1ncc(-c2ccc3c(c2)N(c2ccc(F)cc2)C(=O)CO3)cc1NS(=O)(=O)c1ccc(F)cc1
stdout: 0.021

----------
# STUDY_TARGET: Phosphatidylinositol 4,5-bisphosphate 3-kinase catalytic subunit alpha isoform (Homo sapiens)
# TEST_SUMMARY: Inhibition of recombinant human full length N-terminal GST-tagged PI3Kalpha (1 to 1068 residues)/PIK3R1 (1 to 724 residues) expressed in baculovirus expression system using PIP2 as substrate incubated for 1 hr by ADP-Glo assay
Listed compounds paired with reported IC50

Answered cases to consult:
[[record]]
smiles_text = "Cc1ccc(N2C(=O)COc3ccc(-c4cccc(NS(=O)(=O)c5ccc(F)cc5)c4)cc32)cc1"
result = "> 1000 nM"

[[record]]
smiles_text = "COc1ccc(N2C(=O)COc3ccc(-c4cnc5ccccc5c4)cc32)cc1"
result = "> 1000 nM"

[[record]]
smiles_text = "O=C1COc2ccc(-c3cnc(Cl)c(NS(=O)(=O)c4ccc(F)cc4)c3)cc2N1c1ccc(Cl)cc1"
result = "2 nM"

[[record]]
smiles_text = "COc1ncc(-c2ccc3c(c2)N(c2ccccc2)C(=O)CO3)cc1NS(=O)(=O)c1ccc(F)cc1"
result = "102 nM"

[[record]]
smiles_text = "COc1ccc(N2C(=O)COc3ccc(-c4cnc(OC)c(NS(=O)(=O)c5ccc(F)cc5)c4)cc32)cc1"
result = "0.63 nM"

[[record]]
smiles_text = "COc1ncc(-c2ccc3c(c2)N(C2CCCCC2)C(=O)CO3)cc1NS(=O)(=O)c1ccc(F)cc1"
result = "> 1000 nM"

[[record]]
smiles_text = "O=C1COc2ccc(-c3ccc(O)cc3)cc2N1c1ccc(Cl)cc1"
result = "> 1000 nM"

[[record]]
smiles_text = "COc1cccc(N2C(=O)COc3ccc(-c4cnc(Cl)c(NS(=O)(=O)c5ccc(F)cc5)c4)cc32)c1"
result = "> 1000 nM"


Field: next compound
stdin: // returns reported IC50 for input COc1ccc(N2C(=O)COc3ccc(-c4ccc(O)cc4)cc32)cc1
stdout: > 1000 nM

----------
Recorded IC50, one value per entry.
# STUDY_TARGET: PI3-kinase p110-delta/p85-alpha (Homo sapiens, UniProt O00329)
# Sequence (P27986 whole entry, the tested form may be a part): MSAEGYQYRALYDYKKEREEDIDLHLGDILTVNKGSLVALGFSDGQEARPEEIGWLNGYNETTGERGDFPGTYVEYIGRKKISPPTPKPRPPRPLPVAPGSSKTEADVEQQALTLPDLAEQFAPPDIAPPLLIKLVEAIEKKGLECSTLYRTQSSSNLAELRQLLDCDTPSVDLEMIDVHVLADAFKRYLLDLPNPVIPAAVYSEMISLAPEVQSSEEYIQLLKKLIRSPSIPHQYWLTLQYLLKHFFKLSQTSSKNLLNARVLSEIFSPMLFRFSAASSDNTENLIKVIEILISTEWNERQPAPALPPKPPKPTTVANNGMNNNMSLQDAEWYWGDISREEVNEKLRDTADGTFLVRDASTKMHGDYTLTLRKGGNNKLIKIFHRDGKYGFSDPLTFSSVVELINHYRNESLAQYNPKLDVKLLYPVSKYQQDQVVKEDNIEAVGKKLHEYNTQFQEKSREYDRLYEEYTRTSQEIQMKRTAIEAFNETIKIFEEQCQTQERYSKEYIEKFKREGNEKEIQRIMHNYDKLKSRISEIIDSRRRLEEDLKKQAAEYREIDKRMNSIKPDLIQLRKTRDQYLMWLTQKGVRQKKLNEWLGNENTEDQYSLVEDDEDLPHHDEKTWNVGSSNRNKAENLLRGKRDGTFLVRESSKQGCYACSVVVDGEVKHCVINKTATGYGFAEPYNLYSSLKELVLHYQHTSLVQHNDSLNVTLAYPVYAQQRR
# Sequence (O00329 whole entry, the tested form may be a part): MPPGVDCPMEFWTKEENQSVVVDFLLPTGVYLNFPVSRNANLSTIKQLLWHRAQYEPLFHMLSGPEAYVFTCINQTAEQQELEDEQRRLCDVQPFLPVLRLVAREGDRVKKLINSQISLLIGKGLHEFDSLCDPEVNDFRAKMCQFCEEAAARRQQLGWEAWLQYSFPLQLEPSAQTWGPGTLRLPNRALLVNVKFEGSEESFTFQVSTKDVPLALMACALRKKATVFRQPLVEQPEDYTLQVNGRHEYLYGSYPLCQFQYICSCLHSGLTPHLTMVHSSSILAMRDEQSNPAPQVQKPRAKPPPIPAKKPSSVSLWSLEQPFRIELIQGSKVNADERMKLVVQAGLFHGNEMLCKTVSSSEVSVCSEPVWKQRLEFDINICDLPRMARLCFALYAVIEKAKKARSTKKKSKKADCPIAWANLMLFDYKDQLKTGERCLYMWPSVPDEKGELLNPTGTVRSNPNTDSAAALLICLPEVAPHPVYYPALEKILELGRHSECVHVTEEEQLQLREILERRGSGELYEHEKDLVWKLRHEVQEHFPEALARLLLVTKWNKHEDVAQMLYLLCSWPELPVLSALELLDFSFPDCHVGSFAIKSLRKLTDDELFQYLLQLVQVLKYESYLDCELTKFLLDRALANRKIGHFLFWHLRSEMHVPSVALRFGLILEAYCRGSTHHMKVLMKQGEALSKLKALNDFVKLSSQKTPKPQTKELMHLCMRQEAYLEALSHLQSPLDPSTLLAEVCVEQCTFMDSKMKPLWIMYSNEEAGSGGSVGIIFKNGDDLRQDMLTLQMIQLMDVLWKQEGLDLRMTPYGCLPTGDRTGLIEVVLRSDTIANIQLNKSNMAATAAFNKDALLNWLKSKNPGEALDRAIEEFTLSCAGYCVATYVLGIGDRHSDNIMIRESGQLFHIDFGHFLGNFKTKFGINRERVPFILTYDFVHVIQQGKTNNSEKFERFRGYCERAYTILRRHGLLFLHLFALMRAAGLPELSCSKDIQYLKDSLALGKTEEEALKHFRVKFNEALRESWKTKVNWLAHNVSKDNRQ
# TEST_SUMMARY: Inhibition of recombinant human full length N-terminal GST-tagged PI3Kdelta (1 to 1044 residues)/PIK3R1 (1 to 724 residues) expressed in baculovirus expression system using PIP2 as substrate incubated for 2 hrs by ADP-Glo assay
Answer format: numeric, µM implied, no suffix.

[[record]]
smiles_text = "O=C1COc2ccc(-c3cnc(Cl)c(NS(=O)(=O)c4ccc(F)cc4)c3)cc2N1c1ccc(Cl)cc1"
assay_metric = "IC50"
unit_symbol = "µM"
numeric_readout = 0.0032

[[record]]
smiles_text = "COc1ncc(-c2ccc3c(c2)N(c2ccc(C)cc2)C(=O)CO3)cc1NS(=O)(=O)c1ccc(F)cc1"
assay_metric = "IC50"
unit_symbol = "µM"
numeric_readout = 0.017

[[record]]
smiles_text = "O=C1COc2ccc(-c3cnc(Cl)c(NS(=O)(=O)c4ccc(F)cc4)c3)cc2N1C1CC1"
assay_metric = "IC50"
unit_symbol = "µM"
numeric_readout = 0.062


stdin: Would you mind telling me what IC50 value was observed for COc1ncc(-c2ccc3c(c2)N(c2ccc(F)cc2)C(=O)CO3)cc1NS(=O)(=O)c1ccc(F)cc1 ?
stdout: 0.019

----------
# TEST_SUMMARY: Oral bioavailability in Sprague-Dawley rat at 10 mg/kg measured upto 24 hrs by LC-MS/MS analysis
# Type: ADME, organism-based
# ASSAY_SETUP: in vivo
ASSAY_METRIC: bioavailability

stdin: bioavailability for COc1ccc(N2C(=O)COc3ccc(-c4cnc(OC)c(NS(=O)(=O)c5ccc(F)cc5)c4)cc32)cc1 ?
stdout: 24.1%
